Give OD 490/630 nm for every item shown.
# system: T1, Ala mutant of TA0096, SEQ ID NO: 34
# T1 peptide: EENMDDQAMQDEMEIGY
# measurementDescription: ELISA, coated peptide
One number for each entry.

>  <binder>
H7 (antibody, V domains shown, Chicken variable regions in a mouse chimeric antibody (IgG1); also called anti-PAD4 antibody H7) VH: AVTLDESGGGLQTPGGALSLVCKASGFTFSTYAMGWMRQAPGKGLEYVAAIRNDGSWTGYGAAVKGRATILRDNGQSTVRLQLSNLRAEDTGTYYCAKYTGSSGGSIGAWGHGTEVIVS VL: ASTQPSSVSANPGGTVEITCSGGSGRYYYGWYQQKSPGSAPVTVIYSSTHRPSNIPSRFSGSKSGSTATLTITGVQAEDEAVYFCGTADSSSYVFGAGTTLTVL

>  <recordedMeasurement>
0.066

$$$$

GET /values?readout=OD 490/630 nm&item= G6 (antibody, V domains shown, Chicken variable regions in a mouse chimeric antibody (IgG1); also called anti-PAD4 antibody G6) VH: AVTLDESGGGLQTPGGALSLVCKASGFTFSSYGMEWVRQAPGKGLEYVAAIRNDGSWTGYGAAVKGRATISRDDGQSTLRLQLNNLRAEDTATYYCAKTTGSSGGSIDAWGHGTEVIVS VL: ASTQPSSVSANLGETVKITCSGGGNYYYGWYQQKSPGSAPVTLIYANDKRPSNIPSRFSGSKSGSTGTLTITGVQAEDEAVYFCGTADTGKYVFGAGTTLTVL
0.042
